tested on: RKO (Colorectal Carcinoma); assay: combination Emax (second highest fraction inhibited in the dose matrix, 72 h); higher = more inhibition; extreme values may be limits of the assay

{"columns": ["compound", "combination Emax"],
 "data": [
  ["C=CCn1c(=O)c2cnc(Nc3ccc(N4CCN(C)CC4)cc3)nc2n1-c1cccc(C(C)(C)O)n1 [AZD1775] + CCc1c2c(nc3ccc(O)cc13)-c1cc3c(c(=O)n1C2)COC(=O)[C@]3(O)CC [SN-38] (first compound max 1 µM, partner max 0.3 µM)", 0.966],
  ["CCc1c2c(nc3ccc(O)cc13)-c1cc3c(c(=O)n1C2)COC(=O)[C@]3(O)CC [SN-38] + CN(C)CCCOc1ccc(-c2ccc3ncc4c(c3c2)n(C2CCOCC2)c(=O)n4C)cn1 [AZD0156] (first compound max 0.3 µM, 7x7, partner max 1 µM)", 0.91],
  ["Cc1nc(Nc2ncc(C(=O)Nc3c(C)cccc3Cl)s2)cc(N2CCN(CCO)CC2)n1 [Dasatinib] + CC(=O)Nc1cccc(-n2c(=O)n(C3CC3)c(=O)c3c(Nc4ccc(I)cc4F)n(C)c(=O)c(C)c32)c1 [Trametinib] (first compound max 2 µM, 7x7, partner max 1 µM)", 0.885],
  ["Cn1cnc2c(F)c(Nc3ccc(Br)cc3Cl)c(C(=O)NOCCO)cc21 [Selumetinib] + C[C@@H]1COCCN1C2=NC(=NC(=C2)C3(CC3)[S@](=N)(=O)C)C4=C5C=CNC5=NC=C4 [AZD6738] (first compound max 10 µM, 7x7, partner max 10 µM)", 0.945],
  ["CCN(CCO)CCCOc1ccc2c(Nc3cc(CC(=O)Nc4cccc(F)c4)[nH]n3)ncnc2c1 [AZD2811] + C[C@@H]1COCCN1C2=NC(=NC(=C2)C3(CC3)[S@](=N)(=O)C)C4=C5C=CNC5=NC=C4 [AZD6738] (first compound max 1 µM, 7x7, partner max 10 µM)", 0.853],
  ["COc1cc2ncnc(Nc3ccc(F)c(Cl)c3)c2cc1OCCCN1CCOCC1 [Gefitinib] + CC(C)n1c(=O)n(C)c2cnc3cc(F)c(-c4ccc(OCCCN5CCCCC5)nc4)cc3c21 [AZD1390] (first compound max 10 µM, 7x7, partner max 0.3 µM)", 0.0688],
  ["C[C@@H](Nc1cc(F)cc(F)c1)c1cc(C(=O)N(C)C)cc2c(=O)cc(N3CCOCC3)oc12 [AZD8186] + C1CN(CCC1(C(=O)N[C@@H](CCO)C2=CC=C(C=C2)Cl)N)C3=NC=NC4=C3C=CN4 [AZD5363] (first compound max 10 µM, 7x7, partner max 10 µM)", 0.433]
]}

###

tested on: RT-112 (Bladder Carcinoma); assay: Bliss excess, mean over the matrix (fraction); higher = more synergy;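 also: after 72 h of two-drug dosing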
# Bliss excess >= -0.02 gives label 1, anything below gives label 0

{"columns": ["compound", "class_name"],
 "data": [
  ["CC1(C)CCC(CN2CCN(c3ccc(C(=O)NS(=O)(=O)c4ccc(NCC5CCOCC5)c([N+](=O)[O-])c4)c(Oc4cnc5[nH]ccc5c4)c3)CC2)=C(c2ccc(Cl)cc2)C1 [Venetoclax] + CN(C)CCCOc1ccc(-c2ccc3ncc4c(c3c2)n(C2CCOCC2)c(=O)n4C)cn1 [AZD0156] (first compound max 1 µM, 7x7, partner max 1 µM)", "label 0"],
  ["CN(CCO)CC[C@H](CSc1ccccc1)Nc1ccc(S(=O)(=O)NC(=O)c2ccc(N3CCC([C@@H](O)c4ccccc4-c4ccc(Cl)cc4)CC3)cc2)cc1S(=O)(=O)C(F)(F)F [AZD4320] + CN(C)CCCOc1ccc(-c2ccc3ncc4c(c3c2)n(C2CCOCC2)c(=O)n4C)cn1 [AZD0156] (first compound max 1 µM, 7x7, partner max 1 µM)", "label 0"],
  ["N#Cc1cnc(Nc2cc(NC[C@H]3CNCCO3)c(C(F)(F)F)cn2)cn1 [SRA737] + O=c1[nH]cc(F)c(=O)[nH]1 [5-Fluorouracil] (first compound max 10 µM, 7x7, partner max 20 µM)", "label 1"],
  ["C[C@@H]1COCCN1c1cc(C2([S@](C)(=N)=O)CC2)nc(-c2ccnc3[nH]ccc23)n1 [AZD6738] + O=C(c1cc(Cc2n[nH]c(=O)c3ccccc23)ccc1F)N1CCN(C(=O)C2CC2)CC1 [Olaparib] (first compound max 10 µM, 7x7, partner max 10 µM)", "label 0"],
  ["Cc1c2c(nn1C)CSCc1cc(n(C)n1)CSc1cc(c3ccccc3c1)OCCCc1c(C(=O)O)n(C)c3c-2c(Cl)ccc13 [AZD5991] + CN(C)CCCOc1ccc(-c2ccc3ncc4c(c3c2)n(C2CCOCC2)c(=O)n4C)cn1 [AZD0156] (first compound max 1 µM, 7x7, partner max 1 µM)", "label 0"],
  ["Cc1c2c(nn1C)CSCc1cc(n(C)n1)CSc1cc(c3ccccc3c1)OCCCc1c(C(=O)O)n(C)c3c-2c(Cl)ccc13 [AZD5991] + C1CN(CCC1(C(=O)N[C@@H](CCO)C2=CC=C(C=C2)Cl)N)C3=NC=NC4=C3C=CN4 [Capivasertib] (first compound max 1 µM, 7x7, partner max 3 µM)", "label 1"],
  ["COc1cccc(OCCCN)c1-c1cc(Nc2cnc(C#N)cn2)n[nH]1 [Prexasertib] + C=CCn1c(=O)c2cnc(Nc3ccc(N4CCN(C)CC4)cc3)nc2n1-c1cccc(C(C)(C)O)n1 [AZD1775] (first compound max 1 µM, partner max 1 µM)", "label 1"]
]}
